Tested on: MCF10A CDH1^−/− cells
PROTOCOL DETAILS: 11-point dose-response screen, cell titre blue (CTB) viability
Format: cell-based, human
TEST CONTEXT: Homo sapiens, MCF-10A; 11-point screen, CTB; read-out: MCF10A CDH1^-/- CTB EC50
MEASURED ATTRIBUTE: pEC50
Answers are plain numbers, as −log10 of the molar value.

Could I get pEC50 for every one of these entries?
1. COc1cc(Cl)c(C)cc1NC(=O)c1ccc(CN2CCCC2)cc1
2. COc1ccc2nc(C)cc(NCC(=O)Nc3cccc(C)c3C)c2c1
3. CC(O)CNCc1ccc(OCc2ccc(Cl)cc2Cl)cc1 (stereo not drawn)

OUT:
1: 4.76; 2: 5.51; 3: 5.12

---

Test system: MCF10A CDH1^−/− cells
PROTOCOL DETAILS: Medium-throughput validation in 96-well plates, Hoechst-33342 nuclei counts (CellProfiler)
Assay type: cell-based, human
TEST CONTEXT: 96-well validation, Hoechst nuclei counts, at least five concentration points
Field: pEC50. Provide a value for each of the compounds that follow.
Numbers only, as −log10 of the molar value.

compound="CC(O)CNCc1ccc(OCc2ccc(Cl)cc2Cl)cc1 (centres unmarked)" measured_attribute=pEC50 numeric_result=5.04

Kindly review the next compound as well.
IN: Assign pEC50 to the following record: COc1ccc2nc(C)cc(NCc3ccc(F)cc3)c2c1
OUT: 5.15

---

System: MCF10A CDH1^−/− cells
PROTOCOL DETAILS: 11-point dose-response screen, high-content imaging (HCI) of Hoechst 33342 nuclei
Assay type: cell-based, human
TEST CONTEXT: Homo sapiens, MCF-10A; 11-point screen, HCI
MEASURED ATTRIBUTE: pEC50
One number for each entry, as −log10 of the molar value.

Example entries and their recorded answers appear below.
compound="CC(O)CNCc1ccc(OCc2ccc(Cl)cc2Cl)cc1 (stereo not shown)" numeric_result=5.69
compound=COc1ccc2nc(C)cc(NCc3ccc(F)cc3)c2c1 numeric_result=5.13

Kindly give each listed record's pEC50.
1. COc1cc(Cl)c(C)cc1NC(=O)c1ccc(CN2CCCC2)cc1
2. COc1ccc2nc(C)cc(NCC(=O)Nc3cccc(C)c3C)c2c1

OUT:
[5.11, 5.61]

---

Test system: MCF10A WT and MCF10A CDH1^−/− cells
PROTOCOL DETAILS: Single-point confirmation screen (10 μM, CTB, 384-well), viability differential between isogenic lines
Assay type: cell-based, human
TEST CONTEXT: averaged between three biological replicates, Supplementary Table 2
Kindly state Differential at 1-pt for each of the entries shown.
Answers are plain numbers.

Check out these entries, answers already filled in.
molecule=COc1ccc2nccc(Nc3cccc(C(C)=O)c3)c2c1 measured_target="MCF10A WT and MCF10A CDH1^−/− cells" numeric_result=39.99
molecule=COc1ccc2nc(C)cc(NCC(=O)Nc3cccc(C)c3C)c2c1 measured_target="MCF10A WT and MCF10A CDH1^−/− cells" numeric_result=13.92
molecule="CCOc1ccc2nc(C)cc(SCC(O)C(=O)O)c2c1 (stereo not shown)" measured_target="MCF10A WT and MCF10A CDH1^−/− cells" numeric_result=23.81

IN: Check the records and state Differential at 1-pt for COc1ccc2nc(C)cc(NCc3ccc(F)cc3)c2c1
OUT: 17.42

---

Tested on: MCF10A WT cells
PROTOCOL DETAILS: 11-point dose-response screen, cell titre blue (CTB) viability
Assay type: cell-based, human
TEST CONTEXT: Homo sapiens, MCF-10A; 11-point screen (0.02–20 µM), CTB values; two biological replicates; for EC50 values > 20, a value of 20 was used; read-out: MCF10A WT EC50
Protocol: The 11-point dose-response screen evaluated a concentration range from 0.02 µM to 20 µM for both isogenic cell lines in duplicate biological replicates (Fig. 4). One limitation to metabolism-based cellular assays is that a change in read out (fluorescence, luminescence or absorbance) may not necessarily be caused by cell death and could instead result from a cessation of proliferation due to senescence or inhibited mitochondrial respiration. […]
MEASURED ATTRIBUTE: pEC50
One number for each entry, as −log10 of the molar value.

structure_notation=COc1ccc2nc(C)cc(NCC(=O)Nc3cccc(C)c3C)c2c1 numeric_result=4.71

Now examine the next entry.
IN: For COc1ccc2nccc(Nc3cccc(C(C)=O)c3)c2c1 , write its pEC50.
OUT: 4.75

---

Tested on: MCF10A CDH1^−/− cells
PROTOCOL DETAILS: 11-point dose-response screen, cell titre blue (CTB) viability
Format: cell-based, human
TEST CONTEXT: Homo sapiens, MCF-10A; SL control; 384-well, CTB, 11-point curve, 72 hrs post seeding; read-out: EC50, MCF10A CDH1-/-
MEASURED ATTRIBUTE: EC50 (µM)
One number for each entry, in µM.

IN: // fetch EC50 given entry Nc1ccccc1NC(=O)c1ccc(CNC(=O)OCc2cccnc2)cc1 [Entinostat, entinostat, reference compound]
OUT: 2.4

Hey, just so you know, these numbers are from paper PMC6715681.
